- targetUnderTest: NEDD8-activating enzyme E1 catalytic subunit (Homo sapiens, UniProt Q8TBC4)
- Sequence (Q8TBC4 whole entry): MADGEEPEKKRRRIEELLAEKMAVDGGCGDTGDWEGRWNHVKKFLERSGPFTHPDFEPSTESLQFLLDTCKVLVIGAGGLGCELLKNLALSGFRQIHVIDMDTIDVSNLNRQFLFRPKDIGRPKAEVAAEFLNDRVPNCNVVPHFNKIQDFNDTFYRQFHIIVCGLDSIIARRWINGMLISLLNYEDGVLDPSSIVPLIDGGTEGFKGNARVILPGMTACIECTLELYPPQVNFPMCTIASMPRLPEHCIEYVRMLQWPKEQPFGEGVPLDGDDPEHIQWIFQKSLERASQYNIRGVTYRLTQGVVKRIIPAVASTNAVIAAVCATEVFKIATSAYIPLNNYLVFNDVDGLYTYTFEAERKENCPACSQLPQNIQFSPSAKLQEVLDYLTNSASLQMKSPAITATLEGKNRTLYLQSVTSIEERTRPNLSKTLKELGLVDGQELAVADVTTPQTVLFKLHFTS
- assayExplanation: Inhibition of recombinant human untagged NAEalpha/N-terminal His-tagged NAEbeta expressed in Bac-to-Bac expression system using FLAG-tagged NEDD8 as substrate after 90 mins in presence of GST-tagged Ubc12 by HTRF assay
# IC50 listing for each entry below

• NS(=O)(=O)OC[C@H]1C[C@@H](n2cnc3c(C#Cc4ccccc4)ncnc32)C[C@@H]1O = 0.1 to 1 µM
• NS(=O)(=O)OC[C@H]1O[C@@H](n2cnc3c(NCC4CCNCC4)ncnc32)[C@H](O)[C@@H]1O = 0.1 to 1 µM
• NS(=O)(=O)OC[C@H]1O[C@@H](n2cnc3c(NC(=O)c4ccc(Br)cc4)ncnc32)[C@H](O)[C@@H]1O = 0.1 to 1 µM
• NS(=O)(=O)OC[C@H]1O[C@@H](n2cnc3c(C#Cc4ccccc4F)ncnc32)[C@H](O)[C@@H]1O = 0.1 to 1 µM
• NS(=O)(=O)OC[C@H]1O[C@@H](n2cnc3c(CNC(=O)c4cc(F)cc(F)c4)ncnc32)[C@H](O)[C@@H]1O = 0.1 to 1 µM

# lookup: IC50 of COc1ccccc1C(=O)Nc1ncnc2c1ncn2[C@@H]1O[C@H](COS(N)(=O)=O)[C@@H](O)[C@H]1O
0.1 to 1 µM

And what about the compound COc1ncnc2c1ccn2[C@H]1C[C@H](O)[C@@H](COS(N)(=O)=O)O1 ?
≤ 1 µM

Record: NS(=O)(=O)OC[C@H]1O[C@@H](n2cnc3c(NCCN4CCOCC4)ncnc32)[C@H](O)[C@@H]1O
0.1 to 1 µM

Next record, please: NS(=O)(=O)OC[C@H]1O[C@@H](n2ccc3c(N[C@H]4CCc5ccccc54)ncnc32)[C@H](O)[C@@H]1O
0.1 to 1 µM

Also need COc1cccc(CNc2ncnc3c2ncn3[C@@H]2O[C@H](CNS(N)(=O)=O)[C@@H](O)[C@H]2O)c1 , thanks.
0.1 to 1 µM

Next compound: CCc1cn([C@H]2C[C@H](O)[C@@H](COS(N)(=O)=O)O2)c2ncnc(CCc3ccccc3)c12
≤ 1 µM

Quick one: NS(=O)(=O)OC[C@H]1O[C@@H](n2cnc3c(C4CC4)ncnc32)[C@H](O)[C@@H]1O
0.1 to 1 µM

Next compound: NS(=O)(=O)NC[C@H]1O[C@@H](n2cnc3c(N[C@H]4CCc5ccccc54)ncnc32)[C@H](O)[C@@H]1O
0.1 to 1 µM

Another: COc1ccccc1CNc1ncnc2c1ncn2[C@@H]1O[C@H](COS(N)(=O)=O)[C@@H](O)[C@H]1O
0.1 to 1 µM

Please do the same for CN(c1ncnc2c1ncn2[C@@H]1O[C@H](COS(N)(=O)=O)[C@@H](O)[C@H]1O)[C@H]1CCc2ccccc21 as well.
0.1 to 1 µM

Another compound: CCc1ncnc2c1ncn2[C@@H]1O[C@H](COS(N)(=O)=O)[C@@H](O)[C@H]1O
0.1 to 1 µM

Ok, now NS(=O)(=O)OC[C@H]1O[C@@H](n2cnc3c(NCc4ccc(Cl)cc4)ncnc32)[C@H](O)[C@@H]1O
0.1 to 1 µM

Same lookup for NS(=O)(=O)OC[C@H]1O[C@@H](n2ccc3c(NC(=O)c4ccccc4)ncnc32)C[C@@H]1O , please.
0.1 to 1 µM

Again, but for NS(=O)(=O)CC[C@H]1O[C@@H](n2cnc3c(N[C@H]4CCc5ccccc54)ncnc32)[C@H](O)[C@@H]1O
0.1 to 1 µM

Next: NS(=O)(=O)OC[C@H]1O[C@@H](n2cnc3c(C#Cc4ccccc4Br)ncnc32)[C@H](O)[C@@H]1O
0.1 to 1 µM
